Entries and their differential viability (reversal) values follow.
assay: reversal of MRP1-mediated doxorubicin resistance, pilot screen, H69AR cells, doxorubicin co-treatment (AID 601); details: H69AR cells + 2 uM doxorubicin, CellTiter-Glo, 72 h; at 10 µM; stronger effect = higher value
Give a bare numeral; the unit % is implied.

Below, each entry is followed by its recorded differential viability (reversal) result.
# molecule, differential viability (reversal) (%)
measured = [
    ("COC(=O)c1[nH]c2cc(OC)ccc2c1NC(=O)CCN1CCCCC1", 2.35),
    ("CCN1CCN(S(=O)(=O)c2ccc(S(=O)(=O)N(CC)Cc3ccccc3)cc2)CC1", -7.05),
    ("CCN=C1SC(CC(=O)Nc2ccccc2)C(=O)N1CC (centres undefined)", 10),
    ("CN(Cc1nc(-c2ccncc2)no1)S(=O)(=O)c1ccccc1", 7.03),
    ("O=C(CCOc1ccccc1)NCc1ccccc1", -0.41),
    ("CCN(CC)c1ccc(NC(=O)c2cncc(Br)c2)cc1", -25.4),
    ("CC(O)c1nc2ccccc2n1C1CCCCC1 (centres undefined)", 11.3),
    ("Cc1c(C(=O)NCc2cccnc2)sc2ncn(CC(=O)N3CCCCC3C)c(=O)c12 (centres undefined)", 1.24),
]

# input differential viability (reversal) for `Cc1ccc(-c2nc3ccccc3[nH]2)s1` ?
# output 4.25
